Values from patent EP0000322A1

System: neuronal uptake of noradrenaline
Test: Inhibition of the uptake of 3H-NA in brain slices after in vivo (i.p.) administration
Design: species or system mice
Conditions: Mus musculus, ip, 0.5 h, i.p. half an hour before the animals were killed, midbrain slices, read-out: Inhibition of the uptake in vivo i.p. ED50 NA
Counter-ions that a name gives are not always drawn.
hey, just use condition met if measured ED50 is less than 50 µmol/kg, otherwise condition not met

>  <Compound>
Cc1cccc(C(CC(C)N)c2cccc(C)c2)c1 (stereo not shown) [FLA 619]

>  <Assigned Class>
condition met

$$$$
>  <Compound>
CC(N)CC(c1ccccc1)c1cccc(Br)c1 (single isomer, unassigned) [CPK 184]

>  <Assigned Class>
condition met

$$$$
>  <Compound>
CC(N)CC(c1ccccc1)c1ccc(F)cc1 (single isomer, unassigned) [CPK 163]

>  <Assigned Class>
condition met

$$$$
>  <Compound>
CC(N)/C=C(/c1ccc(Br)cc1)c1cccnc1 (stereo not shown) [CPP 179]

>  <Assigned Class>
condition not met

$$$$
>  <Compound>
CC(N)C=C(c1ccc(Br)cc1)c1ccc(Br)cc1 (stereo not shown) [FLA 608, hydrochloride]

>  <Assigned Class>
condition not met

$$$$
>  <Compound>
CC(N)/C=C(/c1ccccc1)c1cccc(Br)c1 (stereo not shown) [CPK 217]

>  <Assigned Class>
condition met

$$$$
>  <Compound>
CC(N)/C=C(\c1ccccc1)c1cccc(Br)c1 (stereo not shown) [CPK 215]

>  <Assigned Class>
condition met

$$$$
>  <Compound>
CC(N)C=C(c1ccc(F)cc1)c1ccc(F)cc1 (stereo not shown) [FLA 613]

>  <Assigned Class>
condition not met

$$$$
>  <Compound>
Cc1cccc(C(=CC(C)N)c2cccc(C)c2)c1 (stereo not shown) [FLA 618, hydrochloride]

>  <Assigned Class>
condition not met

$$$$
>  <Compound>
COc1ccc(C(CC(C)N)c2ccc(OC)cc2)cc1 (stereo not shown) [FLA 614, fumarate]

>  <Assigned Class>
condition not met

$$$$
>  <Compound>
COc1ccc(C(=CC(C)N)c2ccc(OC)cc2)cc1.O=C(O)/C=C/C(=O)O (stereo not shown) [FLA 611, fumarate]

>  <Assigned Class>
condition not met

$$$$
>  <Compound>
CC(N)/C=C(\c1ccccc1)c1ccc(Br)cc1 (stereo not shown) [CPK 204, oxalate]

>  <Assigned Class>
condition met

$$$$
>  <Compound>
CC(N)CC(c1ccc(F)cc1)c1ccc(F)cc1.Cl (stereo not shown) [FLA 615, hydrochloride]

>  <Assigned Class>
condition not met

$$$$
>  <Compound>
CNC(C)CC(c1ccccc1)c1ccc(Br)cc1 (stereo not shown) [CPK 187]

>  <Assigned Class>
condition not met

$$$$

---

Molecular target: neuronal uptake of noradrenaline (Mus musculus)
Sequence (O55192 whole entry): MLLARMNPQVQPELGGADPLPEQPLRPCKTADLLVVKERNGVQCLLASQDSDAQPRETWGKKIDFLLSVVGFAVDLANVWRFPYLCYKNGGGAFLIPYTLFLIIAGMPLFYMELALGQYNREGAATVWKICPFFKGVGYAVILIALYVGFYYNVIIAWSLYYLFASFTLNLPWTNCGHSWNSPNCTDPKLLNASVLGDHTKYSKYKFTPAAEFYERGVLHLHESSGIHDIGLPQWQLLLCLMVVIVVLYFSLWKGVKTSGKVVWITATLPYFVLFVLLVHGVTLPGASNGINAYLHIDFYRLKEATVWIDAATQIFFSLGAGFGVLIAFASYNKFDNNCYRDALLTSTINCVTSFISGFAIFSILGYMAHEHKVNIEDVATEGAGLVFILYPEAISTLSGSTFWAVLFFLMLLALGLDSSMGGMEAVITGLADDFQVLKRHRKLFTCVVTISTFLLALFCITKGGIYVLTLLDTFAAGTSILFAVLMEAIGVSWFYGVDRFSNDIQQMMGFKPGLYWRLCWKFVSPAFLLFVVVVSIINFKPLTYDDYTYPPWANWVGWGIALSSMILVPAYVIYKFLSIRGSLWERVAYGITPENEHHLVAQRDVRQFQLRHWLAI
Assay: Inhibition of the uptake of 3H-NA in mouse midbrain slices, in vitro administration
Conditions: slices from mouse brain (midbrain), 5 min preincubation with compound
pIC50: −log10 of the molar value.

>  <Compound>
CN(C)CCCN1c2ccccc2CCc2ccc(Cl)cc21 [Chloroimipramine, reference compound]

>  <pIC50>
6.05

$$$$
